Source listed as the supplement of paper PMC11246515.

# total protein half-life in vivo per record follows
# protocol summary: total protein half-life in vivo (active degradation + dilution); higher = more stable protein
# condition label: wild type E. coli NCM3722; growth: N-lim chemostat; doubling time 12 h

primary sequence	units label	total protein half-life in vivo
MMDNMQTEAQPTRTRILNAAREIFSENGFHSASMKAICKSCAISPGTLYHHFISKEALIQAIILQDQERALARFREPIEGIHFVDYMVESIVSLTHEAFGQRALVVEIMAEGMRNPQVAAMLKNKHMTITEFVAQRMRDAQQKGEISPDINTAMTSRLLLDLTYGVLADIEAEDLAREASFAQGLRAMIGGILTAS [P0ACT6]	h	9.35
MKKNQFLKESDVTAESVFFMKRRQVLKALGISATALSLPHAAHADLLSWFKGNDRPPAPAGKALEFSKPAAWQNNLPLTPADKVSGYNNFYEFGLDKADPAANAGSLKTDPWTLKISGEVAKPLTLDHDDLTRRFPLEERIYRMRCVEAWSMVVPWIGFPLHKLLALAEPTSNAKYVAFETIYAPEQMPGQQDRFIGGGLKYPYVEGLRLDEAMHPLTLMTVGVYGKALPPQNGAPVRLIVPWKYGFKGIKSIVSIKLTRERPPTTWNLAAPDEYGFYANVNPYVDHPRWSQATERFIGSGGILDVQRQPTLLFNGYAAQVASLYRGLDLRENF	h	11.9
MTITSLDGYRWLKNDIIRGNFQPDEKLRMSLLTSRYALGVGPLREALSQLVAERLVTVVNQKGYRVASMSEQELLDIFDARANMEAMLVSLAIARGGDEWEADVLAKAHLLSKLEACDASEKMLDEWDLRHQAFHTAIVAGCGSHYLLQMRERLFDLAARYRFIWLRRTVLSVEMLEDKHDQHQTLTAAVLARDTARASELMRQHLLTPIPIIQQAMAGN	h	2.52

---

# total protein half-life in vivo per record follows
# protocol summary: total protein half-life in vivo (active degradation + dilution); higher = more stable protein
# condition label: wild type E. coli NCM3722; growth: C-lim chemostat; doubling time 3 h
metric name: total protein half-life in vivo (h)

primary sequence	units label	data value
MTNLNYQQTHFVMSAPDIRHLPSDTGIEVAFAGRSNAGKSSALNTLTNQKSLARTSKTPGRTQLINLFEVADGKRLVDLPGYGYAEVPEEMKRKWQRALGEYLEKRQSLQGLVVLMDIRHPLKDLDQQMIEWAVDSNIAVLVLLTKADKLASGARKAQLNMVREAVLAFNGDVQVETFSSLKKQGVDKLRQKLDTWFSEMQPVEETQDGE [P0A6P7]	h	2.92
MIRQRRRALTPEQQQEMGQQAATRMMTYPPVVMAHTVAVFLSFDGELDTQPLIEQLWRAGKRVYLPVLHPFSAGNLLFLNYHPQSELVMNRLKIHEPKLDVRDVLPLSRLDVLITPLVAFDEYGQRLGMGGGFYDRTLQNWQHYKTQPVGYAHDCQLVEKLPVEEWDIPLPAVVTPSKVWEW [P0AC28]	h	2.75
MQNRLTIKDIARLSGVGKSTVSRVLNNESGVSQLTRERVEAVMNQHGFSPSRSARAMRGQSDKVVAIIVTRLDSLSENLAVQTMLPAFYEQGYDPIMMESQFSPQLVAEHLGVLKRRNIDGVVLFGFTGITEEMLAHWQSSLVLLARDAKGFASVCYDDEGAIKILMQRLYDQGHRNISYLGVPHSDVTTGKRRHEAYLAFCKAHKLHPVAALPGLAMKQGYENVAKVITPETTALLCATDTLALGASKYLQEQRIDTLQLASVGNTPLMKFLHPEIVTVDPGYAEAGRQAACQLIAQVTGRSEPQQIIIPATLS	h	2.89
MATTQQSGFAPAASPLASTIVQTPDDAIVAGFTSIPSQGDNMPAYHARPKQSDGPLPVVIVVQEIFGVHEHIRDICRRLALEGYLAIAPELYFREGDPNDFADIPTLLSGLVAKVPDSQVLADLDHVASWASRNGGDVHRLMITGFCWGGRITWLYAAHNPQLKAAVAWYGKLTGDKSLNSPKQPVDIATDLNAPILGLYGGQDNSIPQESVETMRQALRAANAKAEIIVYPDAGHAFNADYRPSYHAASAEDGWQRMLEWFKQYGGKKSL	h	2.59
MIRLSEQSPLGTGRHRKCYAHPEDAQRCIKIVYHRGDGGDKEIRRELKYYAHLGRRLKDWSGIPRYHGTVETDCGTGYVYDVIADFDGKPSITLTEFAEQCRYEEDIAQLRQLLKQLKRYLQDNRIVTMSLKPQNILCHRISESEVIPVVCDNIGESTLIPLATWSKWCCLRKQERLWKRFIAQPALAIALQKDLQPRESKTLALTSREA	h	3.22
MNTVCTHCQAINRIPDDRIEDAAKCGRCGHDLFDGEVINATGETLDKLLKDDLPVVIDFWAPWCGPCRNFAPIFEDVAQERSGKVRFVKVNTEAERELSSRFGIRSIPTIMIFKNGQVVDMLNGAVPKAPFDSWLNESL [P0AGG4]	h	1.6
